Test system: L1210 leukemia
Experiment: NCI 3LE31, i.p.-implanted L1210 lymphoid leukemia
Assay type: in vivo, DBA/2 mice
Settings: Mus musculus, L1210, ip, 200 mg/kg i.p. daily for nine days; read-out: T/C % (survival time treated/control)
Protocol: The spectrum of antitumor activity of the compound of Example 1 was determined employing a number of standard National Cancer Institute (NCI) protocols. The antitumor activity was determined in vivo against several different tumors, employing various treatment schedules and routes of administration. […] The test animals were weighed and survivors recorded on a regular basis during a thirty day test period. […]
property-measured: response vs control in vivo at 200 mg/kg

O=C(Nc1ccccc1F)c1c(O)[nH]c(=S)[nH]c1=O [Example 8] | 118%
O=C(Nc1cccc(F)c1)c1c(O)[nH]c(=S)[nH]c1=O [Example 4] | 155%
COc1ccc(NC(=O)c2c(O)[nH]c(=S)[nH]c2=O)cc1 [Example 6] | 127%
O=c1[nH]c(=S)[nH]c(O)c1C(=S)Nc1ccccc1 [Control W] | 103%
Cc1ccccc1NC(=O)c1c(O)[nH]c(=O)[nH]c1=O [Control D] | 124%
O=C(Nc1ccc(F)cc1F)c1c(O)[nH]c(=S)[nH]c1=O [Example 9] | 133%

====

System: L1210 leukemia
Experiment: NCI 3LE31, i.p.-implanted L1210 lymphoid leukemia
Assay type: in vivo, DBA/2 mice
Conditions: Mus musculus, L1210, ip, 100 mg/kg i.p. daily for nine days; read-out: T/C % (survival time treated/control)
Experimental: The spectrum of antitumor activity of the compound of Example 1 was determined employing a number of standard National Cancer Institute (NCI) protocols. The antitumor activity was determined in vivo against several different tumors, employing various treatment schedules and routes of administration. […] The test animals were weighed and survivors recorded on a regular basis during a thirty day test period. […]
property-measured: response vs control in vivo at 100 mg/kg (%)

O=c1[nH]c(O)c(C(=S)Nc2ccccc2)c(=O)[nH]1 [Control X] | 97
Cn1c(O)c(C(=O)Nc2ccccc2)c(=O)n(C)c1=S [Control K] | 121
O=C(Nc1ccc(Cl)cc1)c1c(O)[nH]c(=S)[nH]c1=O [Control A] | 125
Cc1ccccc1NC(=O)c1c(O)[nH]c(=O)[nH]c1=O [Control D] | 106
Cn1c(=S)[nH]c(O)c(C(=O)Nc2ccccc2)c1=O [Control G] | 87
Cn1c(=S)[nH]c(O)c(C(=O)Nc2cccc([N+](=O)[O-])c2)c1=O [Control I] | 102
O=C(Nc1ccc(F)cc1F)c1c(O)[nH]c(=S)[nH]c1=O | 114
COc1ccc(C)cc1NC(=O)c1c(O)[nH]c(=S)[nH]c1=O | 113

The measurements presented in this section are drawn from patent US4634707A.
